Target: human vanilloid receptor VR-1 (hVR1) (Homo sapiens, UniProt Q8NER1)
Construct: expressed in transfected cells; host or cells: HEK293 Tet-on cells (hVR1-HEK293), expression induced with doxycycline
Sequence (Q8NER1 whole entry): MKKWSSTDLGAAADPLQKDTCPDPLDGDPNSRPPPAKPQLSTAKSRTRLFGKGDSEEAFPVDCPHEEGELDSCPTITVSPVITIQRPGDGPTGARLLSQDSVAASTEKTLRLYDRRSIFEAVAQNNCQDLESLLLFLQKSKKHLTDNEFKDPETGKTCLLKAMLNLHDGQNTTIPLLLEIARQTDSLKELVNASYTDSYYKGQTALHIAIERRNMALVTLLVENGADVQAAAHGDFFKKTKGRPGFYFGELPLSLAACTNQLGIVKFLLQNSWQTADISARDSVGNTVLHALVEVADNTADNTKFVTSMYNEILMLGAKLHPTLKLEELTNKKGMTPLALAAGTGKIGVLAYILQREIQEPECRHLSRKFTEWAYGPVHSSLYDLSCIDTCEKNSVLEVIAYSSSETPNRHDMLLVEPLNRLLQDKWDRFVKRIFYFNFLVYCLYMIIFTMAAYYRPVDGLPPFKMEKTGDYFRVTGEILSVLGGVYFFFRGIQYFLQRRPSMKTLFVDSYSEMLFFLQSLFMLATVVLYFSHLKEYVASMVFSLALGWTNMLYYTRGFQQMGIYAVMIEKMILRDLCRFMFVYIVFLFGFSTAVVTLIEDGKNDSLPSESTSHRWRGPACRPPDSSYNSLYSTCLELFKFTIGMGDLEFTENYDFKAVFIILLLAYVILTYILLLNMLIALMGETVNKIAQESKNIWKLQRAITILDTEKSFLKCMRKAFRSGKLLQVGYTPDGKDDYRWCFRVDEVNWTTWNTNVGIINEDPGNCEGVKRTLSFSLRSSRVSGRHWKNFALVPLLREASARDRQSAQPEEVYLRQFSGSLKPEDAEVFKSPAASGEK
Assay: Calcium influx test of vanilloid receptor (capsaicin-induced, Fluo-3/AM, hVR1-HEK293 cells)
Format: cell-based
Conditions: calcium influx induced by 1 μM capsaicin, read-out: Inhibitory effect IC50 (nM) on calcium influx
parameter measured: IC50 (nM)

Here are 8 compounds together with their reported answers.
[
  {
    "smiles notation": "CCNC(=O)c1cnc(-c2ccc(-c3nc4ccc(Br)cc4[nH]3)cc2)c(Cl)c1",
    "units symbol": "nM",
    "data value": 397
  },
  {
    "smiles notation": "COC(=O)c1cnc(-c2ccc(-c3nc4ccc(C(C)(C)C)cc4[nH]3)cc2)c(Cl)c1",
    "units symbol": "nM",
    "data value": 23.1
  },
  {
    "smiles notation": "O=Cc1cnc(-c2ccc(-c3nc4ccc(C(F)(F)F)cc4[nH]3)cc2)c(Cl)c1",
    "units symbol": "nM",
    "data value": 94.5
  },
  {
    "smiles notation": "COC(=O)c1cnc(-c2ccc(-c3nc4ccc(C(F)(F)F)cc4[nH]3)nc2)c(Cl)c1",
    "units symbol": "nM",
    "data value": 55.2
  },
  {
    "smiles notation": "OCc1cnc(-c2ccc(-c3nc4c(Br)cc(C(F)(F)F)cc4[nH]3)nc2)c(Cl)c1",
    "units symbol": "nM",
    "data value": 129
  },
  {
    "smiles notation": "OCc1cnc(-c2ccc(-c3nc4ccc(C(F)(F)F)cc4[nH]3)nc2)c(Cl)c1",
    "units symbol": "nM",
    "data value": 338
  },
  {
    "smiles notation": "CC(=O)OCc1cnc(-c2ccc(-c3nc4ccc(C(C)(C)C)cc4[nH]3)cc2)c(Cl)c1",
    "units symbol": "nM",
    "data value": 319
  },
  {
    "smiles notation": "OCc1cnc(-c2ccc(-c3nc4ccc(Br)cc4[nH]3)nc2)c(Cl)c1",
    "units symbol": "nM",
    "data value": 517
  }
]

[1] OCc1cnc(-c2ccc(-c3nc4ccc(Br)cc4[nH]3)cc2)c(Cl)c1
[2] CC(C)(C)c1ccc2nc(-c3ccc(-c4ncc(C=O)cc4Cl)cc3)[nH]c2c1
[3] CC(C)(C)c1ccc2nc(-c3ccc(-c4ncc(CO)cc4Cl)cc3)[nH]c2c1
Query string: List these items ordered by IC50, big to small. Dear reader, please state the labels in the requested order.
Result string: 1, 2, 3
(1: 171 nM, 2: 29.5 nM, 3: 15.9 nM)
